Where do the numbers come from? From ChEMBL document CHEMBL1153509.

assay-overview: Inhibition of 12-O-tetradecanoylphorbol-13-acetate-induced EBV-early antigen activation in human Raji cells assessed per TPA after 48 hrs by conventional indirect immunofluorescence technique
Assay type: cell-based, human gammaherpesvirus 4
measured-metric: IC50 (mol ratio/TPA)
Hi! Could you send only the number? It should be in mol ratio/TPA, unit omitted.

| structure-smiles | measured-value |
| --- | --- |
| CCCCCCCCCCCCCCCCCC(=O)OCC(COC(=O)CCCCCCCCCCCCCCCCC)O[C@@H]1O[C@H](CO)[C@@H](O)[C@H](O)[C@H]1O | 484 |
| CCCCCCCCCCCC(=O)OCC(COC(=O)CCCCCCCCCCC)O[C@@H]1O[C@H](CO)[C@@H](O)[C@H](O)[C@H]1O | 402 |
| CCCCCC(=O)OCCO[C@@H]1O[C@H](CO)[C@H](O)[C@H](O)[C@H]1O | 350 |

// next entry
Query string: Quick one: IC50 for CCCCCCCCCCCCCCCCCC(=O)OCC(COC(=O)CCCCCCCCCCCCCCCCC)O[C@@H]1O[C@H](CS(=O)(=O)[O-])[C@@H](O)[C@H](O)[C@H]1O.[Na+] ?
Result string: 632
